Would you kindly list Percent Effect for each of these compounds?
Biological target: Ubiquitin-activating enzyme e1, putative (Leishmania donovani (strain BPK282A1)) (UniProt E9BSI1)
Sequence (whole entry): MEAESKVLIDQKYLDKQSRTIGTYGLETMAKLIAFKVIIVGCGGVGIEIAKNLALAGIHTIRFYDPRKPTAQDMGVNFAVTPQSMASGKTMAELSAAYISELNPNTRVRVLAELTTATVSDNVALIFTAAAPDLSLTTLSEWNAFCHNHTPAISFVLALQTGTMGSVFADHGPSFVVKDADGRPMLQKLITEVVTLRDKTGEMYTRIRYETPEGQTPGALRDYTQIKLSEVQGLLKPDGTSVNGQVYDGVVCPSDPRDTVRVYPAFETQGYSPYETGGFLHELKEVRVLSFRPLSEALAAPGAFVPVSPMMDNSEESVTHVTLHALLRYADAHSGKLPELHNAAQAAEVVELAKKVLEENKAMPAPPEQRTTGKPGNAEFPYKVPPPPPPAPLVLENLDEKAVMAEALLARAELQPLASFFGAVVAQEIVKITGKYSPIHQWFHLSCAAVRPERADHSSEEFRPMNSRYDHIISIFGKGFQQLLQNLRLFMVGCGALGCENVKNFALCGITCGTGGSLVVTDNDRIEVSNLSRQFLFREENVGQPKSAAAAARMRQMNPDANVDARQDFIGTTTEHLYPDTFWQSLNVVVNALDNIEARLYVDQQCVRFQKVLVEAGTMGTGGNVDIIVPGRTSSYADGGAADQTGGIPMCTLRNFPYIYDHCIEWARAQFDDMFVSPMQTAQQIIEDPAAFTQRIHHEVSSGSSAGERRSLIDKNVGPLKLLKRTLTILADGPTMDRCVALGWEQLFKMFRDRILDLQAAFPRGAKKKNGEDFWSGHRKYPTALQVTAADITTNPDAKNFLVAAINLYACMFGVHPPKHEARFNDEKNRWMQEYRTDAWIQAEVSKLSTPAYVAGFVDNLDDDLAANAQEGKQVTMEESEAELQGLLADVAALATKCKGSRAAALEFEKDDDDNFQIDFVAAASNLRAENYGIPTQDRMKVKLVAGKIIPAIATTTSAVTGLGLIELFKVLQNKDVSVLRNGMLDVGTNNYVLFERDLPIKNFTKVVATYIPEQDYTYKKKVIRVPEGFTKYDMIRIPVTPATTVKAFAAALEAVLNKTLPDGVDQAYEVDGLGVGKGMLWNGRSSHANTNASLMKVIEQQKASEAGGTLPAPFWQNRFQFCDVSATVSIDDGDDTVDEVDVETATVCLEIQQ
Assay: Leishmania donovani Ubiquitin Activating Enzyme (LdE1)
Type: functional
Design: scale not given: direction of the effect not stated beside the values
Conditions: 30 µM
Potency and affinity values are given separately.
Answer with a number only, understood to be in %.

Reported Percent Effect ( Cc1cnn(CC2CCCN2C(=O)c2cc(C)no2)c1 (stereo unspecified) ) = 5.26

Reported Percent Effect ( c1csc(CN2C[C@@H]3OCCN(CC4CCCO4)[C@@H]3C2)c1 (stereo partly specified) ) = 5.48

Reported Percent Effect ( CCc1nc(C2CCCN(C(=O)c3ccc(OC(C)C)nc3)C2)no1 (stereo unspecified) ) = 5.2

Reported Percent Effect ( `CN1CCN(c2cc(CNC(=O)c3ccc(=O)n(C)c3)ccn2)CC1` ) = 20.5

Reported Percent Effect ( `Cc1nc(C)c(C(=O)N2CCC(Nc3cccnc3)CC2)s1` ) = -2.74

Reported Percent Effect ( `CCc1cc(C(=O)N2CCC(Nc3ccc(C)nn3)CC2)sc1C` ) = 10.7

----------
Target: Sialic acid-binding Ig-like lectin 9 (Homo sapiens)
Assay: Hs-Siglec9 ALPHAscreen SOP 20170721
Parameters: scale not given: direction of the effect not stated beside the values
Settings: 10 µM
Would you kindly list Percent Effect for each of these molecules?
Note to self: number, then unit, no commentary.

Reported Percent Effect ( CC(NC(=O)N(C)Cc1ccsc1)c1ccc2c(c1)NC(=O)CO2 (stereo unspecified) ) = 7.9%

Reported Percent Effect ( CC(c1cccc(S(N)(=O)=O)c1)N(C)CCOc1ccccc1 (stereo unspecified) ) = 10.5%

Reported Percent Effect ( COCCOc1cccc(C(=O)N2CCCC(n3cccn3)C2)c1 (stereo unspecified) ) = 10.5%

Reported Percent Effect ( `NS(=O)(=O)CCNC(=O)c1ccc(-c2ccc(F)cc2)cc1F` ) = 3.08%

Reported Percent Effect ( Cn1ccnc1CNC(=O)N1CCCC(Cc2nccn2C)C1 (stereo unspecified) ) = -1.15%

Reported Percent Effect ( `Cc1ccc(C(=O)Nc2cn[nH]c2)cn1` ) = 0.161%

----------
Would you kindly list Percent Effect for each of these molecules?
Target: Sialic acid-binding Ig-like lectin 9 (Homo sapiens) (UniProt Q9Y336)
Sequence (Q9Y336 whole entry): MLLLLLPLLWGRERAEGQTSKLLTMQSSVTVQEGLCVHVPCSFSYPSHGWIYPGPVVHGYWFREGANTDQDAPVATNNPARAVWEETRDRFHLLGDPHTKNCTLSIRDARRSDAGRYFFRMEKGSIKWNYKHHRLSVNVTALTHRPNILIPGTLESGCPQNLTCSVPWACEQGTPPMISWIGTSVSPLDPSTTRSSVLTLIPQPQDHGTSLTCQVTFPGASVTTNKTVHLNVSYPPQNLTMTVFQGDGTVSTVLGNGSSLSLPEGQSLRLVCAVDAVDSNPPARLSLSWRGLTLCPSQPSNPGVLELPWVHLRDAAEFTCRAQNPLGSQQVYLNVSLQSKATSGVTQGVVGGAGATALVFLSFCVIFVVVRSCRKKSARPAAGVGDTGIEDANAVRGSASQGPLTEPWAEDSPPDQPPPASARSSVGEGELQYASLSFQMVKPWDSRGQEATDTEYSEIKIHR
Assay: Hs-Siglec9 ALPHAscreen SOP 20170721
Design: scale not given: direction of the effect not stated beside the values
Conditions: 10 µM
Answer with a number only, understood to be in %.

Reported Percent Effect ( `Cc1cnc(C(=O)N2CCc3ncnc(C)c3CC2)cn1` ) = 5.51

Reported Percent Effect ( `Cc1ccc2c(n1)N(CCn1cccn1)CCN(C(=O)NC1CC1)C2` ) = 26.1

Reported Percent Effect ( Cc1ccc(CNC(CN2CCN(C)CC2)c2ccccc2)cc1 (stereo unspecified) ) = -0.353

Reported Percent Effect ( Cn1cccc1C(CNC(=O)c1ccc(F)cc1F)N1CCCCCC1 (stereo unspecified) ) = -10.9

Reported Percent Effect ( Cc1ccc(NC(=O)C2CSCN2C(=O)c2cnccn2)c(C)c1 (stereo unspecified) ) = -2.1

Reported Percent Effect ( `CC(C)N(Cc1nc2c(cnn2C)c(=O)[nH]1)c1ccccc1` ) = -5.08

----------
Target: AMP-activated protein kinase, AMPK (Homo sapiens) (UniProt P54646+O43741+P54619+Q9UGJ0+Q9Y478+Q13131+Q9UGI9)
Experiment: AMP-dependent Kinase enzyme assay. An in vitro enzyme assay that detects ADP turnover that is directly proportional to AMPK activity. This uses naive AMPK that is activated during the assay with MK-8722
Type: functional
Parameters: scale not given: direction of the effect not stated beside the values
Settings: 30 µM
Would you kindly list Percent Effect for each of these molecules?
Answer with a number only, understood to be in %.

Reported Percent Effect ( `c1ccc(-c2noc3c2CN(CC2CC2)CC3)cc1` ) = -7.86

Reported Percent Effect ( `COC(=O)CCc1c(C)nc2cc(O)nn2c1C` ) = -48.9

Reported Percent Effect ( `O=C(c1cccc(NCCO)c1)N1CCOCC1` ) = -9.18

Reported Percent Effect ( `COC(=O)c1ccc(S(=O)(=O)NCc2cccnc2N(C)C)cc1` ) = 0.13

Reported Percent Effect ( `CCN(CC)C(=O)c1nnc2ccc(N3CCOCC3)cc2n1` ) = -17.9

Reported Percent Effect ( CCC(CC)C(CNC(=O)Nc1cc(C)nn1C)N1CCOCC1 (configuration not stated) ) = 3.07

Reported Percent Effect ( O=C(NCC(O)CN1CCc2ccccc2C1)Nc1cccnc1 (configuration not stated) ) = 3.15

----------
Organism: Homo sapiens
Test: To identify inhibition of the IFN signalling (Jak-Stat) pathway via expression of an eGFP reporter gene under the control of an IFN-stimulated response element (ISRE) containing MxA promoter.
Type: functional
Design: scale not given: direction of the effect not stated beside the values
Settings: 30 µM
Would you kindly list Percent Effect for each of these molecules?
Answer with a number only, understood to be in %.

Reported Percent Effect ( `COCC(=O)N1Cc2cnc(Cc3ccc(OC)cc3)nc2C1` ) = 1.33

Reported Percent Effect ( CCc1nc(C2CCCN2C(=O)CCc2ccc3c(c2)OCO3)no1 (centres undefined) ) = 10.2

Reported Percent Effect ( CC(=O)c1cccc(OCCCC(=O)NCC2CCCN2C)c1 (centres undefined) ) = 6.04

Reported Percent Effect ( O=C1CC(c2cccnc2)C2(CCN(C(=O)c3ccncc3)CC2)N1 (centres undefined) ) = -0.901

Reported Percent Effect ( `Cc1cccc(C(=O)NCc2ccc(N3CCCCC3)nc2)n1` ) = 24.3

Reported Percent Effect ( `CC[C@@H]1N(Cc2ccsc2)CCC[C@]12CCC(=O)N2C` ) = 32.3

Reported Percent Effect ( `NC(=O)NCC(=O)N1C[C@H]2CC[C@@H]1CN(Cc1ccccc1)C2` ) = -13.6

Reported Percent Effect ( `Cc1cc(N2CCC(CC(N)=O)CC2)nc(-c2ccncc2)n1` ) = -5.86

Reported Percent Effect ( `COCC(=O)N1CCN(Cc2coc(-c3cccc(F)c3)n2)CC1` ) = 9.99

Reported Percent Effect ( Cc1cccnc1NC(=O)C(C)Cn1nc(C(F)(F)F)cc1C (centres undefined) ) = -10.4

Reported Percent Effect ( Cc1cc(-c2nn(C)c(Cl)c2CN2CCOCC2CC(=O)O)no1 (centres undefined) ) = 22.2

Reported Percent Effect ( `CC(C)Cc1noc(CN2CCC(NC(=O)c3cccs3)CC2)n1` ) = 3.93

Reported Percent Effect ( NC(=O)CN1CCC(C(=O)N2CCCC(OCc3cccnc3)C2)CC1 (centres undefined) ) = 9.22

Reported Percent Effect ( Cn1ccnc1CN1CCN(CC(O)c2cccc(F)c2)CC1 (centres undefined) ) = -1.78

Reported Percent Effect ( Cc1cc2n(n1)CC(CNCc1ccc(-n3cccn3)nc1)CN2 (centres undefined) ) = 1.93

Reported Percent Effect ( O=C(Cc1ccccc1Cl)N1CCCC(n2cncn2)C1 (centres undefined) ) = 22.2

Reported Percent Effect ( CC(=O)N1CCN(C(=O)C2SCCc3sccc32)CC1 (centres undefined) ) = 6.62

Reported Percent Effect ( `CN1C(=O)C[C@@H]2[C@@H]1CCN2C(=O)c1ccc[nH]1` ) = 17.1

Reported Percent Effect ( `Cn1ccc(C(=O)NCc2cccc(CN3CCCC3)c2)cc1=O` ) = -14.3

Reported Percent Effect ( `Cc1cc(NC(=O)NCc2cccnc2OC(C)C)n(C)n1` ) = 4.52

Reported Percent Effect ( `Cn1ccnc1N1CCN(C(=O)Cc2ccc(F)cc2)CC1` ) = 14.3

Reported Percent Effect ( `CCc1cnc(C)nc1NCCN1CCCCCC1` ) = 0.592

Reported Percent Effect ( Cc1nn(-c2ccccc2)c2c1C(c1ccc(C(=O)O)cc1)CC(=O)N2 (centres undefined) ) = 11.5

Reported Percent Effect ( COCC1CN(C(=O)c2ccoc2C)Cc2nccn2C1 (centres undefined) ) = 12.3

This collection of values is drawn from ChEMBL document CHEMBL3988442.
